Biological target: human p38 kinase alpha (Homo sapiens, UniProt Q16539)
Construct: The coding region of the human p38a cDNA was obtained by PCR-amplification from RNA isolated from the human monocyte cell line THP.1; GST (N); made in house; host or cells: E. coli DH10B
Sequence (Q16539 whole entry): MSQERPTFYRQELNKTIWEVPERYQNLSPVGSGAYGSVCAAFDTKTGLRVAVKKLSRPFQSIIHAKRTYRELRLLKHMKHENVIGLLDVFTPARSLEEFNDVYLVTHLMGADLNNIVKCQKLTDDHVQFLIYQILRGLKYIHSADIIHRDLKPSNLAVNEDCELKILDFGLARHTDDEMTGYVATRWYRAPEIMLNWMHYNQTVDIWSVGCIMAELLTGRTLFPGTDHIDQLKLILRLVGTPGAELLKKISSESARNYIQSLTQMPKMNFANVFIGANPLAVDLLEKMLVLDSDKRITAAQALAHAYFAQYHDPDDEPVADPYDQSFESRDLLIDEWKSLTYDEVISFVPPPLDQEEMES
Assay: p38 kinase in vitro assay, phosphorylation of biotinylated PHAS-I with gamma 32P-ATP
Assay type: biochemical
Conditions: read-out: P38 alpha kinase IC50
Reported IC50 is given for each of the following compounds.

Here are 10 compounds together with their reported answers.
- Compound: "C[C@@H](NC(=O)c1cccc(C(F)(F)F)c1F)c1[nH]nc(-c2ccc(F)cc2)c1-c1ccncc1"
  Tested target: "human p38 kinase alpha (Homo sapiens, UniProt Q16539)"
  IC50: "690 nM"
- Compound: "COc1ccc(S(=O)(=O)N[C@H](C)c2[nH]nc(-c3ccc(F)cc3)c2-c2ccncc2)cc1OC"
  Tested target: "human p38 kinase alpha (Homo sapiens, UniProt Q16539)"
  IC50: "160 nM"
- Compound: "O=C(NCc1[nH]nc(-c2ccc(F)cc2)c1-c1ccncc1)c1ccc(F)cc1F"
  Tested target: "human p38 kinase alpha (Homo sapiens, UniProt Q16539)"
  IC50: "870 nM"
- Compound: "CS(=O)(=O)NCc1[nH]nc(-c2ccc(F)cc2)c1-c1ccncc1"
  Tested target: "human p38 kinase alpha (Homo sapiens, UniProt Q16539)"
  IC50: "270 nM"
- Compound: "C[C@@H](NC(=O)c1c(F)cc(F)cc1F)c1[nH]nc(-c2ccc(F)cc2)c1-c1ccncc1"
  Tested target: "human p38 kinase alpha (Homo sapiens, UniProt Q16539)"
  IC50: "180 nM"
- Compound: "O=C(NCc1[nH]nc(-c2ccc(F)cc2)c1-c1ccncc1)C(F)(F)F"
  Tested target: "human p38 kinase alpha (Homo sapiens, UniProt Q16539)"
  IC50: "57 nM"
- Compound: "CC(C)(C)C(=O)NCc1[nH]nc(-c2ccc(F)cc2)c1-c1ccncc1"
  Tested target: "human p38 kinase alpha (Homo sapiens, UniProt Q16539)"
  IC50: "290 nM"
- Compound: "Cc1ccccc1S(=O)(=O)N[C@H](C)c1[nH]nc(-c2ccc(F)cc2)c1-c1ccncc1"
  Tested target: "human p38 kinase alpha (Homo sapiens, UniProt Q16539)"
  IC50: "56 nM"
- Compound: "COCC(=O)N1CCC(c2[nH]nc(-c3ccc(Cl)cc3)c2-c2ccncc2)CC1"
  Tested target: "human p38 kinase alpha (Homo sapiens, UniProt Q16539)"
  IC50: "71 nM"
- Compound: "O=S(=O)(NCc1[nH]nc(-c2ccc(F)cc2)c1-c1ccncc1)c1cc(Cl)ccc1Cl"
  Tested target: "human p38 kinase alpha (Homo sapiens, UniProt Q16539)"
  IC50: "< 100 nM"

Query :: Quick check: IC50 of `CN1CCC[C@@H]1c1[nH]nc(-c2ccc(F)cc2)c1-c1ccncc1` ?
Result :: 710 nM

###

Reported inhibition in vivo at 20 mg/kg is given for each of the following compounds.
Test system: TNF-α
Test: Rat assay: LPS-challenged rats, serum TNF-α by ELISA
Format: in vivo
Details: Rattus norvegicus, po, Table 10, dose 20.0 mg/kg
Quick note: give the figure in %, leave out the unit.

- Compound: "Cc1cc(-c2n[nH]c(N3CCN(C)CC3)c2-c2ccncc2)ccc1Cl"
  inhibition in vivo at 20 mg/kg, %: 82
- Compound: "CSc1[nH]nc(-c2ccc(Cl)cc2)c1-c1ccncc1"
  inhibition in vivo at 20 mg/kg, %: 14
- Compound: "Cc1cccc(-c2n[nH]c(N3CCN(C)CC3)c2-c2ccncc2)c1"
  inhibition in vivo at 20 mg/kg, %: 94
- Compound: "Cc1ccc(-c2n[nH]c(N3CCN(C)CC3)c2-c2ccncc2)cc1C"
  inhibition in vivo at 20 mg/kg, %: 0
- Compound: "COc1ccc(-c2[nH]nc(N3CCN(C)CC3)c2-c2ccncc2)cc1Cl"
  inhibition in vivo at 20 mg/kg, %: 85
- Compound: "Clc1ccc(-c2n[nH]c(SCC3OCCO3)c2-c2ccncc2)cc1"
  inhibition in vivo at 20 mg/kg, %: 58
- Compound: "CN1CCN(c2n[nH]c(-c3ccc(C#N)cc3)c2-c2ccncc2)CC1"
  inhibition in vivo at 20 mg/kg, %: 0
- Compound: "CN1CCN(c2[nH]nc(-c3ccc(OC(F)(F)F)cc3)c2-c2ccncc2)CC1"
  inhibition in vivo at 20 mg/kg, %: 0

Query :: Quick check: inhibition in vivo at 20 mg/kg of `Cc1ccccc1-c1n[nH]c(N2CCN(C)CC2)c1-c1ccncc1` ?
Result :: 49

Query :: What do we get for Clc1ccc(-c2n[nH]c(SCCOC3CCCCO3)c2-c2ccncc2)cc1 (stereo not drawn) ?
Result :: 59

Query :: What do we get for `N#CCSc1[nH]nc(-c2ccc(Cl)cc2)c1-c1ccncc1` ?
Result :: 53

Query :: What do we get for `CN1CCN(c2[nH]nc(-c3ccc(Br)cc3)c2-c2ccncc2)CC1` ?
Result :: 93

Query :: What do we get for `Fc1ccc(-c2n[nH]c(N3CCSCC3)c2-c2ccncc2)cc1` ?
Result :: 49

Query :: What do we get for `CN1CCN(c2n[nH]c(-c3ccc(I)cc3)c2-c2ccncc2)CC1` ?
Result :: 70

Query :: What do we get for `COCCSc1[nH]nc(-c2ccc(Cl)cc2)c1-c1ccncc1` ?
Result :: 68

Query :: What do we get for `CN1CCN(c2[nH]nc(-c3ccc(C(C)(C)C)cc3)c2-c2ccncc2)CC1` ?
Result :: 14

Query :: What do we get for `O=C(CSc1[nH]nc(-c2ccc(Cl)cc2)c1-c1ccncc1)N1CCOCC1` ?
Result :: 35

Query :: What do we get for `CC(C)(C)OC(=O)N1CCC(Oc2[nH]nc(-c3ccc(Cl)cc3)c2-c2ccncc2)CC1` ?
Result :: 62

###

Reported pIC50 is given for each of the following molecules.
Tested on: TNF-α
Assay: LPS stimulation of TNF production by U937 cells
Assay type: cell-based, human
Details: Homo sapiens, U-937, TNF production, LPS-stimulated human U937 cells; read-out: U937 Cell IC50
Field pIC50 (float): negative decimal logarithm of the concentration in molar.

Here are 3 molecules together with their reported answers.
- Molecule: "Cc1cccc(C)c1NC(=O)NCc1[nH]nc(-c2ccc(F)cc2)c1-c1ccncc1 [Example B-0168]"
  Recorded number: 5.63
- Molecule: "CC(C)C(=O)NCc1[nH]nc(-c2ccc(F)cc2)c1-c1ccncc1 [Example B-0010]"
  Recorded number: 6.19
- Molecule: "CC(C)NC(=O)NCc1[nH]nc(-c2ccc(F)cc2)c1-c1ccncc1 [Example B-0149]"
  Recorded number: 5.00

Proceeding to the next molecule to report its pIC50.
Query :: Enter reported pIC50 observed with TNF-α for CC(=O)OC(C)(C)C(=O)NCc1[nH]nc(-c2ccc(F)cc2)c1-c1ccncc1 [Example B-0043]
Result :: 6.27

###

Reported melting point is given for each of the following compounds.

Here are 3 compounds together with their reported answers.
- Compound: "COC(=O)CNc1[nH]nc(-c2ccc(Cl)cc2)c1-c1ccncc1 [Example A-429]"
  melting point: "195.4 to 196.8 °C"
- Compound: "CS(=O)(=O)N1CCN(c2[nH]nc(-c3ccc(Cl)cc3)c2-c2ccncc2)CC1 (hydrate or solvate) [Example A-320, monohydrate]"
  melting point: "245 to 248 °C"
- Compound: "COC(=O)N1CCN(c2[nH]nc(-c3ccc(Cl)cc3)c2-c2ccncc2)CC1 (hydrate or solvate) [Example A-319, monohydrate]"
  melting point: "264 to 265 °C"

Query :: Quick check: melting point of CSc1ccc(-c2[nH]nc(N3CCN(C)CC3)c2-c2ccncc2)cc1 [Example A-423] ?
Result :: 275.6 to 281.9 °C

Query :: What do we get for CC(C)(C)OC(=O)N1CCC(S(=O)(=O)c2[nH]nc(-c3ccc(Cl)cc3)c2-c2ccncc2)CC1 [Example A-465] ?
Result :: 228 to 230.8 °C

Query :: What do we get for CC(C)(C)OC(=O)N1CCC(Oc2[nH]nc(-c3ccc(Cl)cc3)c2-c2ccncc2)CC1 [Example A-441] ?
Result :: 230.1 to 231.8 °C

Query :: What do we get for CN1CCN(c2[nH]nc(-c3ccc(C(C)(C)C)cc3)c2-c2ccncc2)CC1 [Example A-414] ?
Result :: 243.6 to 244.3 °C

###

Tested on: human TNF
Experiment: TNF inhibition: human whole blood assay
Assay type: cell-based
Details: Homo sapiens, Table 8, human whole blood, LPS; read-out: TNF Inhibition-Human Whole Blood Assay
pIC50: −log10 of the molar value. Where a name gives a salt, the structure may show the parent alone.
Assign class by pIC50: not lower than 7 means t; lower than 7 means f.

Query :: Please check the record `CN1CCC(Nc2n[nH]c(-c3ccc(Cl)cc3)c2-c2ccncc2)CC1` and state if its pIC50 is at or above 7.
Result :: f

Query :: What do we get for `C#CCN1CCN(c2n[nH]c(-c3ccc(Cl)cc3)c2-c2ccncc2)CC1` ?
Result :: f

Query :: What do we get for Fc1ccc(-c2[nH]nc(NC3CCNCC3)c2-c2ccncc2)cc1 [Example A-339, trihydrochloride] ?
Result :: t

Query :: What do we get for C#CCn1nc(N2CCNCC2)c(-c2ccncc2)c1-c1ccc(Cl)cc1 [Example A-318, trihydrochloride monohydrate] ?
Result :: f

Query :: What do we get for `CN1CCC(Nc2n[nH]c(-c3ccc(F)cc3)c2-c2ccncc2)CC1` ?
Result :: t

Query :: What do we get for `Fc1ccc(-c2[nH]ncc2-c2ccnc(Nc3ccccc3F)n2)cc1` ?
Result :: t

Query :: What do we get for `Clc1ccc(-c2n[nH]c(N3CCN(C4CC4)CC3)c2-c2ccncc2)cc1` ?
Result :: f

Query :: What do we get for `Clc1ccc(-c2[nH]nc(N3CCN(c4ccccc4)CC3)c2-c2ccncc2)cc1` ?
Result :: f

Query :: What do we get for CC1CN(c2[nH]nc(-c3ccc(Cl)cc3)c2-c2ccncc2)CC(C)N1 (stereo not shown) ?
Result :: f
